- TGT: ALK6 (Homo sapiens)
- TEST DETAILS: TR-FRET enzymatic ALK kinase assay, ALK6
PROPERTY LABEL: IC50

>>> value("CS(=O)(=O)c1cccc(-c2cnn3cc(-c4ccc(CCn5ccnc5)cc4)cnc23)c1 [Compound 133]")
"> 10 µM"
>>> value("C[C@@H]1CNC[C@H](C)N1c1ccc(-c2cnc3c(-c4ccc(CS(N)(=O)=O)cc4)cnn3c2)cc1 [Compound 71]")
"> 10 µM"

Lab note: next molecule to report on.
Problem: Can you share its IC50? I mean this molecule: CC(O)c1cccc(-c2cnn3cc(-c4ccc(CCN5CCNCC5)cc4)cnc23)c1 (stereo not drawn) [Compound 171]
Result: > 10 µM

* * *

- TGT: ALK3 (Homo sapiens, UniProt P36894)
- Sequence (P36894 24-532): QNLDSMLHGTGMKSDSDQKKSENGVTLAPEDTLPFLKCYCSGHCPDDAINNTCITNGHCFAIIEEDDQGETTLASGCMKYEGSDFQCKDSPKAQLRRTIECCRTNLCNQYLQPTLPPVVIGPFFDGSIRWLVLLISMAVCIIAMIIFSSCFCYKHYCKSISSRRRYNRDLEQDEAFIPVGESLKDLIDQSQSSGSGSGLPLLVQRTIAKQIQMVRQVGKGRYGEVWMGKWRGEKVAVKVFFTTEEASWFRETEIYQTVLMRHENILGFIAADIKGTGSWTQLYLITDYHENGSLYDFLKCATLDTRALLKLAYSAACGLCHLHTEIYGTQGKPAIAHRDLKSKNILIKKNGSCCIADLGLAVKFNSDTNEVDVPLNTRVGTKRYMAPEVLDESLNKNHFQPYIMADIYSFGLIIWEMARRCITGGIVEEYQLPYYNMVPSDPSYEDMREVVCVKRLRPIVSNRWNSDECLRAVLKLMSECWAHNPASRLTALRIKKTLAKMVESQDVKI
- TEST DETAILS: TR-FRET enzymatic ALK kinase assay, ALK3
pIC50: −log10 of the molar value.
PROPERTY LABEL: pIC50

Worked set:
>>> value("CS(=O)(=O)c1cccc(-c2cnn3cc(-c4ccc(C(F)(F)CN5CCNCC5)cc4)cnc23)c1")
"< 5.00"
>>> value("C[C@@H]1CNC[C@H](C)N1c1ccc(-c2cnc3c(-c4ccc(S(=O)(=O)C(F)(F)F)cc4)cnn3c2)cc1")
"< 5.00"

Next compound, please.
Problem: Quick one: pIC50 for CS(=O)(=O)c1cccc(-c2cnn3cc(-c4ccc(C5CCCCN5)cc4)cnc23)c1 (stereo not drawn) ?
Result: < 5.00

* * *

- TGT: ALK1 (Homo sapiens, UniProt P37023)
- Sequence (P37023 22-503): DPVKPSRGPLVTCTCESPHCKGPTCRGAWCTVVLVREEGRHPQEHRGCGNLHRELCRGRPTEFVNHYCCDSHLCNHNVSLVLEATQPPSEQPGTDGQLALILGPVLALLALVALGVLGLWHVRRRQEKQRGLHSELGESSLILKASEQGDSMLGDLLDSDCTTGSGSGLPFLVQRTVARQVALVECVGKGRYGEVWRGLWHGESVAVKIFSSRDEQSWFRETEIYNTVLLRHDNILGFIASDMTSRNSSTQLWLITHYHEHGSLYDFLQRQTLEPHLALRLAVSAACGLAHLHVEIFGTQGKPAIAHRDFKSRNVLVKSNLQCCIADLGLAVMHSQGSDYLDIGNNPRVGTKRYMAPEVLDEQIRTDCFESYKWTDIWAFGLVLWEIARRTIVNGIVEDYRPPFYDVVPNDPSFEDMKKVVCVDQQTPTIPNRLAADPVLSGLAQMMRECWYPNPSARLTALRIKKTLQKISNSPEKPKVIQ
- TEST DETAILS: TR-FRET enzymatic ALK kinase assay, ALK1
PROPERTY LABEL: IC50 (nM)

>>> value("CS(=O)(=O)c1cccc(-c2cnn3cc(-c4ccc(CN5CCCC5)cc4)cnc23)c1")
33
>>> value("C[C@@H]1CNC[C@H](C)N1c1ccc(-c2cnc3c(-c4ccc(CN)c5ccccc45)cnn3c2)cc1")
9600
>>> value("CS(=O)(=O)c1cccc(-c2cnn3cc(-c4ccc(OC5(CN6CCNCC6)CC5)cc4)cnc23)c1")
280
>>> value("C[C@@H]1CNC[C@H](C)N1c1ccc(-c2cnc3c(-c4cccc(S(N)(=O)=O)c4)cnn3c2)cc1")
210
>>> value("C[C@@H]1CNC[C@H](C)N1c1ccc(-c2cnc3c(-c4cccc(CS(N)(=O)=O)c4)cnn3c2)cc1")
160

(A) CC(C)(CN1CCCCC1)Oc1ccc(-c2cnc3c(-c4ccc(C(N)=O)c5ccccc45)cnn3c2)cc1
(B) Cc1cc(-c2cnn3cc(-c4ccc(N5[C@H](C)CNC[C@@H]5C)cc4)cnc23)ccc1S(N)(=O)=O
(C) O=C(O)c1ccc(-c2cnn3cc(-c4ccc(N5CCNCC5)cc4)cnc23)c2ccccc12
(D) C[C@@H]1CNC[C@H](C)N1c1ccc(-c2cnc3c(-c4cccc5c(C#N)cccc45)cnn3c2)cc1
(E) CC(=O)c1ccc(-c2cnn3cc(-c4ccc(N5[C@H](C)CNC[C@@H]5C)cc4)cnc23)c2ccccc12
Problem: Rank entries according to their IC50, from the largest number down. A complete answer lists every label in the requested sequence.
Result: B, C, E, D, A
(B: 811 nM, C: 186 nM, E: 109 nM, D: 75 nM, A: 11 nM)

* * *

- TGT: ALK3 (Homo sapiens)
- TEST DETAILS: TR-FRET enzymatic ALK kinase assay, ALK3
PROPERTY LABEL: IC50 (µM)

(1) CS(=O)(=O)c1cccc(-c2cnn3cc(-c4ccc(CCN5CCC(O)CC5)cc4)cnc23)c1
(2) CC(N)c1ccc(-c2cnc3c(-c4cccc(C(C)O)c4)cnn3c2)cc1 (stereo not shown)
(3) CN1CCC(c2ccc(-c3cnc4c(-c5cccc(S(C)(=O)=O)c5)cnn4c3)cc2)CC1
Problem: Sort the list above on IC50 in ascending fashion. Reply with the item labels sorted in the order that was asked for.
Result: 3, 2, 1
(3: 3.2 µM, 2: 4.7 µM, 1: 7.6 µM)

* * *

- TGT: ALK3 (Homo sapiens, UniProt P36894)
- TEST DETAILS: TR-FRET enzymatic ALK kinase assay, ALK3
pIC50: −log10 of the molar value.
Below, each entry is listed with its recorded pIC50.

>>> value("c1cc(-c2cc[nH]n2)cc(-c2cnn3cc(-c4ccc(CCN5CCCCC5)cc4)cnc23)c1")
"< 5.00"
>>> value("C[C@@H]1CNC[C@H](C)N1c1ccc(-c2cnc3c(-c4ccc(F)c(C#N)c4)cnn3c2)cc1")
"< 5.00"
>>> value("CC(O)c1cccc(-c2cnn3cc(-c4ccc(CCN5CCOCC5)cc4)cnc23)c1 (stereo not drawn)")
"< 5.00"
>>> value("CS(=O)(=O)c1cccc(-c2cnn3cc(-c4ccc(CCn5ccnc5)cc4)cnc23)c1")
"< 5.00"
>>> value("CS(=O)(=O)c1cccc(-c2cnn3cc(-c4ccc(C(F)(F)CN5CCCC5)cc4)cnc23)c1")
"< 5.00"

Now for another entry.
Problem: Bench note: what pIC50 did CN1CCN(c2ccc(-c3cnc4c(-c5ccc(S(N)(=O)=O)c6ccccc56)cnn4c3)cn2)CC1 show?
Result: < 5.00

* * *

- TGT: ALK4 (Homo sapiens, UniProt P36896)
- Sequence (P36896 24-505): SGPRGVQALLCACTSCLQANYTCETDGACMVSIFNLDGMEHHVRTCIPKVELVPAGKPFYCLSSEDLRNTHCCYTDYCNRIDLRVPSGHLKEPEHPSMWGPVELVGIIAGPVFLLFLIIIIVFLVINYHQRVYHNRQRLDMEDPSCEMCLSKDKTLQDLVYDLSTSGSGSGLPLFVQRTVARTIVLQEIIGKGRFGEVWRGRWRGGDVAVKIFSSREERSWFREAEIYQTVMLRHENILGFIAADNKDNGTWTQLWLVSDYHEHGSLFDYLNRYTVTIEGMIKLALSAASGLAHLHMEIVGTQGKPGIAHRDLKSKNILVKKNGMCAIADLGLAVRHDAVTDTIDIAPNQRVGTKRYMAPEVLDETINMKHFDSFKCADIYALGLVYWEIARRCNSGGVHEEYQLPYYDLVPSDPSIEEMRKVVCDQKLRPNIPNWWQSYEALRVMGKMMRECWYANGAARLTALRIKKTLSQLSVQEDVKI
- TEST DETAILS: TR-FRET enzymatic ALK kinase assay, ALK4
pIC50: −log10 of the molar value.
PROPERTY LABEL: pIC50

Reference set (3 entries):
>>> value("C[S+](=O)([O-])c1cccc(-c2cnn3cc(-c4ccc(OC5(CN6CCCC(O)C6)CC5)cc4)cnc23)c1 (stereo not drawn)")
"< 5.00"
>>> value("CC(O)c1cccc(-c2cnn3cc(-c4ccc(C5CCNCC5)cc4)cnc23)c1 (stereo not drawn)")
"< 5.00"
>>> value("NS(=O)(=O)c1cccc(-c2cnn3cc(-c4ccc(C5CCNCC5)cc4)cnc23)c1")
"< 5.00"

Moving on to the next compound.
Problem: Given the entry CC1CCN(c2ccc(-c3cnc4c(-c5ccc(S(N)(=O)=O)c6ccccc56)cnn4c3)cn2)CC1 , what pIC50 was observed with ALK4 (Homo sapiens, UniProt P36896)?
Result: < 5.00

* * *

- TGT: ALK2 (Mus musculus)
- Construct: The C2C12 cell line was selected for the measurement of ALK2 activity using BMP6 as the agonist; host or cells: C2C12
- Sequence (P37172 21-509): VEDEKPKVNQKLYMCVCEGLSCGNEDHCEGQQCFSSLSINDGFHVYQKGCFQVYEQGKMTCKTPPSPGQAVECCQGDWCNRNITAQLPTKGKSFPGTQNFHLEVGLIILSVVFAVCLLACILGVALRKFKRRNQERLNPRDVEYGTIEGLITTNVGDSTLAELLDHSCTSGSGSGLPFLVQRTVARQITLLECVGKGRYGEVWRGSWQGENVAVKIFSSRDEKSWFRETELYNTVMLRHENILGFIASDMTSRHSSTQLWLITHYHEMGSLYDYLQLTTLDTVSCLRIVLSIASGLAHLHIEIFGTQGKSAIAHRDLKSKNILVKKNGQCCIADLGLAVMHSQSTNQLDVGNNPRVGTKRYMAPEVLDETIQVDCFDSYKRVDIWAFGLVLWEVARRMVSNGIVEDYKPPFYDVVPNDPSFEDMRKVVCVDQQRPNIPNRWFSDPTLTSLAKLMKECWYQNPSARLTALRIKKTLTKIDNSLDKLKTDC
- TEST DETAILS: HTRF pSMAD1 cell-based ALK2 assay (C2C12 cells, BMP6 as agonist)
- CONDITIONS USED: cell-based assay, BMP6; read-out: Cell IC50 BMP6
- Method: 2. HTRF Cell-Based ALK1 and ALK2 Assays in 384-Well Plate Format We have developed a cell based ALK1 kinase assay and a cell-based ALK2 assay. The BAOEC cell line was employed for the measurement of ALK1 activity using BMP9 as the agonist. The C2C12 cell line was selected for the measurement of ALK2 activity using BMP6 as the agonist. […] The kinase activity was determined by the status of SMD 1/5/8 phosphorylation stimulated by the agonist. […]
pIC50: −log10 of the molar value.
# pIC50 per record follows

Problem: // query pIC50 value for entry C[S+](=O)([O-])c1cccc(-c2cnn3cc(-c4ccc(OC5(Cn6ccnc6)COC5)cc4)cnc23)c1 [Compound 105]
Result: > 9.00

Problem: Entry to check: C[C@@H]1CNC[C@H](C)N1c1ccc(-c2cnc3c(-c4cccc([S+](=O)([O-])C5CC5)c4)cnn3c2)cc1 [Compound 111]
Result: > 9.00

Problem: Repeat for the following molecule: CC(=O)c1cccc2c(-c3cnn4cc(-c5ccc(N6[C@H](C)CNC[C@@H]6C)cc5)cnc34)cccc12 [Compound 24]
Result: 6.48

* * *

- TGT: ALK6 (Homo sapiens, UniProt O00238)
- Sequence (O00238 14-502): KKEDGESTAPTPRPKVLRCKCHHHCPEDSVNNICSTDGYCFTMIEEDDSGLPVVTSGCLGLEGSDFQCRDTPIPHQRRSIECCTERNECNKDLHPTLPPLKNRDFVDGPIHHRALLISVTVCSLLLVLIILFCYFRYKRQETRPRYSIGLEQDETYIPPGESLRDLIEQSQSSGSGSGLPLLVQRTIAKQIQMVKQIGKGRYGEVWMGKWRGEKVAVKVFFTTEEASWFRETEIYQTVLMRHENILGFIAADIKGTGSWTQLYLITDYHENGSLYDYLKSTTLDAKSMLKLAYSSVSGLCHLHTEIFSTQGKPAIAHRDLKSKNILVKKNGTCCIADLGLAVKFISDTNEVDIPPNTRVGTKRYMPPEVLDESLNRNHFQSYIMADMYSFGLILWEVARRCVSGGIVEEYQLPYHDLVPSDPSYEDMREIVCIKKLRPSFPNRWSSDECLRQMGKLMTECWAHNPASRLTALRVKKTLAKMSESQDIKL
- TEST DETAILS: TR-FRET enzymatic ALK kinase assay, ALK6
pIC50: −log10 of the molar value.
PROPERTY LABEL: pIC50

Below, each entry is followed by its recorded pIC50 result.
>>> value("CS(=O)(=O)c1cccc(-c2cnn3cc(-c4ccc(C5(N)CC5)cc4)cnc23)c1 [Compound 190]")
"< 5.00"
>>> value("C[C@@H]1CNC[C@H](C)N1c1ccc(-c2cnc3c(-c4ccc([S+](N)(=O)[O-])c(C(F)(F)F)c4)cnn3c2)cc1 [Compound 53]")
"< 5.00"
>>> value("CC(O)c1cccc(-c2cnn3cc(-c4ccc(CCN5CCCC5)cc4)cnc23)c1 (stereo not drawn) [Compound 146]")
"< 5.00"
>>> value("C[C@@H]1CNC[C@H](C)N1c1ccc(-c2cnc3c(-c4ccc(F)c(C#N)c4)cnn3c2)cc1 [Compound 84]")
"< 5.00"
>>> value("CS(=O)(=O)c1cccc(-c2cnn3cc(-c4ccc(OC5(CN6CCCC6)CC5)cc4)cnc23)c1 [Compound 170]")
5.02

Problem: For the compound C[C@@H]1CNC[C@H](C)N1c1ccc(-c2cnc3c(-c4cccc5c(C#N)cccc45)cnn3c2)cc1 [Compound 25] , what pIC50 is on record?
Result: 6.25

Problem: For C[C@@H]1CNC[C@H](C)N1c1ccc(-c2cnc3c(-c4ccc(CO)c5ccccc45)cnn3c2)cc1 [Compound 22] then?
Result: 6.19

Problem: Request: C[C@@H]1CNC[C@H](C)N1c1ccc(-c2cnc3c(-c4cccc5c(-c6nn[nH]n6)cccc45)cnn3c2)cc1 [Compound 28]
Result: 6.95

Problem: Again, but for O=[S+]([O-])(c1cccc(-c2cnn3cc(-c4ccc(C5CCNCC5)cc4)cnc23)c1)C1CC1 [Compound 110]
Result: < 5.00

Problem: Could you do the same for CC(O)c1cccc(-c2cnn3cc(-c4ccc(CCN5CCC(O)CC5)cc4)cnc23)c1 (stereo not drawn) [Compound 151] , please?
Result: < 5.00

Problem: Now the compound NS(=O)(=O)c1ccc(-c2cnn3cc(-c4ccc(OC(F)(F)CN5CCCCC5)cc4)cnc23)c2ccccc12 [Compound 206]
Result: < 5.00
